- experimental target: UniProtKB A0A8I3NK63
- Sequence (A0A8I3NK63 1-466): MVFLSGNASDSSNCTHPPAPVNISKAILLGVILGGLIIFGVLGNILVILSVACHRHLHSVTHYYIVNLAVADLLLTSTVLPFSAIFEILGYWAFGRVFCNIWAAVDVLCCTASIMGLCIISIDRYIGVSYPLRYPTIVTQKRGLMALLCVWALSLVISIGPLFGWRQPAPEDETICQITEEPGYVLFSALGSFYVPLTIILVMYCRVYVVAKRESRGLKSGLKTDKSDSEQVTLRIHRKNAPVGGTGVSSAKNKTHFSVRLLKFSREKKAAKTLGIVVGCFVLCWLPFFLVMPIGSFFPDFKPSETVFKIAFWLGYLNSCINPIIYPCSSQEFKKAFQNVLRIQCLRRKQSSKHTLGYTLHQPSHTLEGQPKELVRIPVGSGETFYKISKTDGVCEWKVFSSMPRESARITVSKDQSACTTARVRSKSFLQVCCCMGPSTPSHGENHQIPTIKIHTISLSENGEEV
- experiment summary: Functional antagonism: phenylephrine (PE)-induced contraction of canine prostate strips
- Type: cell-based
- experimental parameters: Table 2b; vs phenylephrine; Schild plot
Counter-ions that a name gives are not always drawn.
property: pA2 Dog Prostate [α-1A]

{"columns": ["molecule", "experimental target", "pA2 Dog Prostate [α-1A]"],
 "data": [
  ["COc1cccc2c1[C@@H]1CN(CCCCn3c(=O)[nH]c4c(sc5nccnc54)c3=O)C[C@@H]1CC2 [Example 80, hydrochloride]", "UniProtKB A0A8I3NK63", 8.08],
  ["COc1cccc2c1CC[C@H]1CN(CCn3c(=O)[nH]c4c(ccc5cnccc54)c3=O)C[C@@H]21 [Example 84, hydrochloride]", "UniProtKB A0A8I3NK63", 8.99],
  ["COc1cccc2c1CC[C@H]1CN(CCn3c(=O)[nH]c4c(sc5cncnc54)c3=O)C[C@@H]21", "UniProtKB A0A8I3NK63", 9.03],
  ["COc1cccc2c1CC[C@H]1CN(CCn3c(=O)[nH]c4c(sc5ccc(C)cc54)c3=O)C[C@@H]21 [Example 74, hydrochloride]", "UniProtKB A0A8I3NK63", 8.7],
  ["COc1cccc2c1CC[C@H]1CN(CCn3cnc4c(sc5nccnc54)c3=O)C[C@@H]21 [Example 71, hydrochloride]", "UniProtKB A0A8I3NK63", 9.21],
  ["COc1cccc2c1CC[C@H]1CN(CCn3c(=O)[nH]c4cc5[nH]cnc5cc4c3=O)C[C@@H]21 [Example 53, hydrochloride]", "UniProtKB A0A8I3NK63", 9.25],
  ["CCOc1cccc2c1CC[C@H]1CN(CCn3c(=O)[nH]c4c(sc5ncccc54)c3=O)C[C@@H]21 [Example 109, hydrochloride]", "UniProtKB A0A8I3NK63", 8.00]
]}
